biological target: Taq DNA polymerase (UniProt P19821 P19821:1-832); assay: EMSA; 1x TAE with 2 mM EDTA, pH 8.3, 10% glycerol; settings: tags: recombinant, Fermentas; label: 5'-33P
Sequence (P19821 whole entry, one chain of several): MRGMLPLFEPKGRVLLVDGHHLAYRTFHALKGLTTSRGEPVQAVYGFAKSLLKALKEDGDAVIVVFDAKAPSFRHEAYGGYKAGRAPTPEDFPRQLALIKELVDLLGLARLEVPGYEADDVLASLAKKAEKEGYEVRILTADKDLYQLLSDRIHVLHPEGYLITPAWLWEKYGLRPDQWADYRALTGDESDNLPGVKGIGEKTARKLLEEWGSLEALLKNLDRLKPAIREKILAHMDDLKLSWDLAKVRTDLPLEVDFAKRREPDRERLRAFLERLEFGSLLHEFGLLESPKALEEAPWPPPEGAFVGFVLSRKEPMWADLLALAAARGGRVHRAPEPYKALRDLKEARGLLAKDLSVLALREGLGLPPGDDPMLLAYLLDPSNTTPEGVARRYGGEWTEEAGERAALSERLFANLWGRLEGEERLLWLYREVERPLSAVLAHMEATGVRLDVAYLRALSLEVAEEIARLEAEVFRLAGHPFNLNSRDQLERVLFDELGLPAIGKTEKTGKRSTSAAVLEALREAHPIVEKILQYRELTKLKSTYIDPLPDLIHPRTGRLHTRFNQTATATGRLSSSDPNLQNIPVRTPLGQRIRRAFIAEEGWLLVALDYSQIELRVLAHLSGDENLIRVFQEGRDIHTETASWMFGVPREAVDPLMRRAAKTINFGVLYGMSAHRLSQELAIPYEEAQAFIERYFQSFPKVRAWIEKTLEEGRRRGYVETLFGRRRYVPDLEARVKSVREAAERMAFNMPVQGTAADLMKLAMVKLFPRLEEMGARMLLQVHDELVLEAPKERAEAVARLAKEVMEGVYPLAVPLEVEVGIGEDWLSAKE
reportedProperty: Kd (nM)
Please state the figure in nM; there is no need to write the unit.

Any idea what Kd was measured for TTTTAGCCGCTAGAGTCGACCTGC (ssDNA) [24 nt primer] ?
79

Ref: patent US20110059490
